Listed here: items and their measured minimal effective dose.
test system: Trichostrongylus colubriformis; assay: In vivo nematode test, Trichostrongylus colubriformis / sheep (faecal egg count before and after treatment); settings: experimentally infected sheep (Schaf), treated after the prepatent period, pure active substance in gelatin capsules, oral, dose giving complete cessation of egg excretion, read-out: Dosis effectiva
metric_name: minimal effective dose (mg/kg)

molecule="Cc1onc(-c2c(F)cccc2Cl)c1C(=O)Nc1ccc(Cl)cc1F [Beispiel 230]" metric_name="minimal effective dose" measured_number=5
molecule="CCCCCCCCCCCCCCCCCCNC(=O)c1c(-c2c(Cl)cccc2Cl)noc1C [Beispiel 83]" metric_name="minimal effective dose" measured_number=10
molecule="Cc1ccc(OC(=O)c2c(-c3c(Cl)cccc3Cl)noc2C)cc1 [Beispiel 59]" metric_name="minimal effective dose" measured_number=5

====

tested on: Trichostrongylus colubriformis; assay: In vivo nematode test, Trichostrongylus colubriformis / sheep (faecal egg count before and after treatment); details: experimentally infected sheep (Schaf), treated after the prepatent period, pure active substance in gelatin capsules, oral, dose giving complete cessation of egg excretion, read-out: Dosis effectiva
metric_name: minimal effective dose

entry_smiles=Cc1ccccc1NC(=O)c1c(-c2c(Cl)cccc2Cl)noc1C result="5 mg/kg"
entry_smiles=Cc1onc(-c2c(Cl)cccc2Cl)c1C(=O)Oc1ccc(Cl)cc1 result="10 mg/kg"
entry_smiles=CCCCCCCCCCCCCCCCCCNC(=O)c1c(-c2c(Cl)cccc2Cl)noc1CC result="10 mg/kg"
entry_smiles=CCc1onc(-c2c(Cl)cccc2Cl)c1C(=O)Nc1ccc(SC(F)(F)F)cc1 result="5 mg/kg"
entry_smiles=Cc1ccc(NC(=O)c2c(-c3c(Cl)cccc3Cl)noc2C)cc1 result="10 mg/kg"
